Hello, the source for this data is ChEMBL document CHEMBL6153104, in case you need it.

Biological target: Protein cereblon/Inactive tyrosine-protein kinase transmembrane receptor ROR1 (Homo sapiens) (UniProt Q96SW2+Q01973)
Sequence (Q01973 whole entry, looked up): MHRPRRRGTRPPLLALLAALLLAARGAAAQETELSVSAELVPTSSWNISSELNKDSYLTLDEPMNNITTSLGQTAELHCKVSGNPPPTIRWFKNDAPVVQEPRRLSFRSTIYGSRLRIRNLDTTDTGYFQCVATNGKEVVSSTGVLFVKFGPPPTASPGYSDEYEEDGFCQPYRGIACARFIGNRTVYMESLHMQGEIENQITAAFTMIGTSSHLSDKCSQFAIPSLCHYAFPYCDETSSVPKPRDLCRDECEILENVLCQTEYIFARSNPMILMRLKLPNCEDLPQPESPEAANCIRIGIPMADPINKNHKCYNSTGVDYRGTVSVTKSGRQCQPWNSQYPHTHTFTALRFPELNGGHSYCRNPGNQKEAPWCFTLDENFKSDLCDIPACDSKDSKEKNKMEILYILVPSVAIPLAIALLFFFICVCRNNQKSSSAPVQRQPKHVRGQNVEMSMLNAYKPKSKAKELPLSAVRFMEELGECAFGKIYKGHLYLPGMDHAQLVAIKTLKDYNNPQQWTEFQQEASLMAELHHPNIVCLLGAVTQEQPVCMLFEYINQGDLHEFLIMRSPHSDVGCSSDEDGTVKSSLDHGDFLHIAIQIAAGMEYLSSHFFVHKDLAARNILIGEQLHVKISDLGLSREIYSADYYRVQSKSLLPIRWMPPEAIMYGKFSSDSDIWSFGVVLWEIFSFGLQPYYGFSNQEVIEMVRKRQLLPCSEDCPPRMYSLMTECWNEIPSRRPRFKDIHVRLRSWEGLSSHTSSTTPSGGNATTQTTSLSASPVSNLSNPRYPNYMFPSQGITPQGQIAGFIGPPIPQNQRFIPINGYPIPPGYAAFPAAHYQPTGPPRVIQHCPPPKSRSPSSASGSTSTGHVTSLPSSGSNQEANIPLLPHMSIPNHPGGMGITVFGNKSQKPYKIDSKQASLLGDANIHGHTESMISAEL
Sequence (Q96SW2 whole entry, looked up): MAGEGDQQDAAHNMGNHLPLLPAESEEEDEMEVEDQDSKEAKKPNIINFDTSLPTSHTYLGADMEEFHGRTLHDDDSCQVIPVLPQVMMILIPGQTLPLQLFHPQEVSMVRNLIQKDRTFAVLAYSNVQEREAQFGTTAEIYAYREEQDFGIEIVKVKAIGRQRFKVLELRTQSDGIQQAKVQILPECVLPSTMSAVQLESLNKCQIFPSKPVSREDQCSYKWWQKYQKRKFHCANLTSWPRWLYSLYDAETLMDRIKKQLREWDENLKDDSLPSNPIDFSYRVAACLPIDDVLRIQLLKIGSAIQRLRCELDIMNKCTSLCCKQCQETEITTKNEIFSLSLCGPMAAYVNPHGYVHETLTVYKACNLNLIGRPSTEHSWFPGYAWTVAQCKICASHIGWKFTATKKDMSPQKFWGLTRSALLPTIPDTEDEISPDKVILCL
Test: PROTAC activity at CRBN/ROR1 in human NCI-H23 cells assessed as induction of ROR1 degradation at 1 uM incubated for 24 hrs by Western blot analysis relative to control
Type: cell-based
readout-label: Activity (%)

{"columns": ["compound", "unit-tag", "Activity"],
 "data": [
  ["CCN1CCC(Nc2c(Br)cnc3[nH]c(-c4ccc(N5CCN(C(=O)CNc6cccc7c6C(=O)N(C6CCC(=O)NC6=O)C7=O)CC5)cc4)nc23)CC1 (stereo unspecified)", "%", 83.3],
  ["CCN1CCC(Nc2c(Br)cnc3[nH]c(-c4ccc(N5CCN(CCCNc6cccc7c6C(=O)N(C6CCC(=O)NC6=O)C7=O)CC5)cc4)nc23)CC1 (stereo unspecified)", "%", 99.7],
  ["CCN1CCC(Nc2c(Br)cnc3[nH]c(-c4ccc(N5CCN(CCOCCOCCOCCNc6cccc7c6C(=O)N(C6CCC(=O)NC6=O)C7=O)CC5)cc4)nc23)CC1 (stereo unspecified)", "%", 93.8],
  ["CCN1CCC(Nc2c(Br)cnc3[nH]c(-c4ccc(N5CCN(CCNc6cccc7c6C(=O)N(C6CCC(=O)NC6=O)C7=O)CC5)cc4)nc23)CC1 (stereo unspecified)", "%", 99.3],
  ["CCN1CCC(Nc2c(Br)cnc3[nH]c(-c4ccc(N5CCN(CCNc6ccc7c(c6)C(=O)N(C6CCC(=O)NC6=O)C7=O)CC5)cc4)nc23)CC1 (stereo unspecified)", "%", 92.7],
  ["CCN1CCC(Nc2c(Br)cnc3[nH]c(-c4ccc(N5CCN(C(=O)CCCCCCCCCOc6cccc7c6C(=O)N(C6CCC(=O)NC6=O)C7=O)CC5)cc4)nc23)CC1 (stereo unspecified)", "%", 99.6]
]}
